- ASSAYED TARGET: Matrix metalloproteinase-9 (Homo sapiens)
- Sequence (P14780 whole entry): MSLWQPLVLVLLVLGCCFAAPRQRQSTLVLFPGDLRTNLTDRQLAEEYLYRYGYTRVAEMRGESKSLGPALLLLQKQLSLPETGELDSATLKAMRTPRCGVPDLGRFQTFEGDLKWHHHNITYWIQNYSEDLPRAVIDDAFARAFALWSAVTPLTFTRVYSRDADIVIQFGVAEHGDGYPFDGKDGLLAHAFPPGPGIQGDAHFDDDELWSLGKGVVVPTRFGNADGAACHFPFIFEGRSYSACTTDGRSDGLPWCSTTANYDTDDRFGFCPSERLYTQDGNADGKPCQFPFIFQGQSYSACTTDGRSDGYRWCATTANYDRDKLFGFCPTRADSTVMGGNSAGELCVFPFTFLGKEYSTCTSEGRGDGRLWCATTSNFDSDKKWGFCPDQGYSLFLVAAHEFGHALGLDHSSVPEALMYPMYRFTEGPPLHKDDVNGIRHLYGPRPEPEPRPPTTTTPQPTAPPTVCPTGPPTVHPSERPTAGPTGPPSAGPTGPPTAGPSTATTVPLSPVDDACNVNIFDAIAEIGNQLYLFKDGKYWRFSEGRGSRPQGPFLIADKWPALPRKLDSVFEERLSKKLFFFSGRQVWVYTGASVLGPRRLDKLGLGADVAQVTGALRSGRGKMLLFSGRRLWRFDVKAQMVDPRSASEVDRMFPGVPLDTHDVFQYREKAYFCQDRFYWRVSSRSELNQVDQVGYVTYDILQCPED
- PROTOCOL TEXT: Inhibition of human recombinant pro-MMP9 by spectrofluorimeter
ENDPOINT LABEL: Ki (nM)
Use nM as the unit, but write only the number.

CNC(=O)[C@H](Cc1c[nH]c2ccccc12)NC(=O)[C@@H](CC(=O)NNS(=O)(=O)c1ccc(-c2ccc(Br)cc2)cc1)CC(C)C has a reported Ki of 3.6

###

- ASSAYED TARGET: UniProt P08253
- PROTOCOL TEXT: Inhibition of human recombinant pro-MMP2 by spectrofluorimeter
ENDPOINT LABEL: IC50 (µM)
Use µM as the unit, but write only the number.

{"MOLECULE SMILES": "CNC(=O)[C@H](Cc1c[nH]c2ccccc12)NC(=O)[C@@H](CC(=O)NNc1ccc([N+](=O)[O-])cc1)CC(C)C", "ASSAYED TARGET": "UniProt P08253", "IC50, µM": 10}

CNC(=O)[C@H](Cc1c[nH]c2ccccc12)NC(=O)[C@@H](CC(=O)NNS(=O)(=O)c1ccccc1[N+](=O)[O-])CC(C)C has a reported IC50 of 0.32

CNC(=O)[C@H](Cc1c[nH]c2ccccc12)NC(=O)[C@@H](CC(=O)NNc1ccc(OC)cc1)CC(C)C has a reported IC50 of 10

CNC(=O)[C@H](Cc1c[nH]c2ccccc12)NC(=O)[C@@H](CC(=O)NNS(=O)(=O)c1ccc2ccccc2c1)CC(C)C has a reported IC50 of 0.037

###

- ASSAYED TARGET: Matrix metalloproteinase-14 (Homo sapiens)
- PROTOCOL TEXT: Inhibition of human recombinant MMP14 catalytic domain by spectrofluorimeter
ENDPOINT LABEL: Ki (nM)
Use nM as the unit, but write only the number.

CNC(=O)[C@H](Cc1c[nH]c2ccccc12)NC(=O)[C@@H](CC(=O)NNS(=O)(=O)c1ccc(-c2ccc(Br)cc2)cc1)CC(C)C has a reported Ki of 1900

###

- ASSAYED TARGET: Matrilysin (Homo sapiens, UniProt P09237)
- PROTOCOL TEXT: Inhibition of human recombinant pro-MMP7 by spectrofluorimeter
ENDPOINT LABEL: Ki (µM)
Use µM as the unit, but write only the number.

CNC(=O)[C@H](Cc1c[nH]c2ccccc12)NC(=O)[C@@H](CC(=O)NNS(=O)(=O)c1ccc(-c2ccc(Br)cc2)cc1)CC(C)C has a reported Ki of 0.523

###

- ASSAYED TARGET: Matrilysin (Homo sapiens)
- Sequence (P09237 whole entry): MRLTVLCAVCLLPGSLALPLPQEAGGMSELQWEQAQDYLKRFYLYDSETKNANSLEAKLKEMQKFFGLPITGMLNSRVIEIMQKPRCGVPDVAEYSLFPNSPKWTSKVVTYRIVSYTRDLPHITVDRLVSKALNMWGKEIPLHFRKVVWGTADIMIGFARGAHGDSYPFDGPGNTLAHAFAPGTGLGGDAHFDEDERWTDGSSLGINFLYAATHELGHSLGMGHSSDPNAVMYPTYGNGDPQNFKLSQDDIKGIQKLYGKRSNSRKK
- PROTOCOL TEXT: Inhibition of human recombinant pro-MMP7 by spectrofluorimeter
ENDPOINT LABEL: IC50 (nM)
Use nM as the unit, but write only the number.

{"MOLECULE SMILES": "CNC(=O)[C@H](Cc1c[nH]c2ccccc12)NC(=O)[C@@H](CC(=O)NNS(=O)(=O)c1ccc2ccccc2c1)CC(C)C", "ASSAYED TARGET": "Matrilysin (Homo sapiens)", "IC50 [nM]": 6150}
{"MOLECULE SMILES": "CNC(=O)[C@H](Cc1c[nH]c2ccccc12)NC(=O)[C@@H](CC(=O)NNS(=O)(=O)c1ccc(-c2ccc(Br)cc2)cc1)CC(C)C", "ASSAYED TARGET": "Matrilysin (Homo sapiens)", "IC50 [nM]": 475}

CNC(=O)[C@H](Cc1c[nH]c2ccccc12)NC(=O)[C@@H](CC(=O)NNS(=O)(=O)c1ccc(N2C(=O)CCC2=O)cc1)CC(C)C has a reported IC50 of 110

###

Overview of reported IC50 across a group of compounds:
- ASSAYED TARGET: 72 kDa type IV collagenase (Homo sapiens)
- Sequence (P08253 whole entry): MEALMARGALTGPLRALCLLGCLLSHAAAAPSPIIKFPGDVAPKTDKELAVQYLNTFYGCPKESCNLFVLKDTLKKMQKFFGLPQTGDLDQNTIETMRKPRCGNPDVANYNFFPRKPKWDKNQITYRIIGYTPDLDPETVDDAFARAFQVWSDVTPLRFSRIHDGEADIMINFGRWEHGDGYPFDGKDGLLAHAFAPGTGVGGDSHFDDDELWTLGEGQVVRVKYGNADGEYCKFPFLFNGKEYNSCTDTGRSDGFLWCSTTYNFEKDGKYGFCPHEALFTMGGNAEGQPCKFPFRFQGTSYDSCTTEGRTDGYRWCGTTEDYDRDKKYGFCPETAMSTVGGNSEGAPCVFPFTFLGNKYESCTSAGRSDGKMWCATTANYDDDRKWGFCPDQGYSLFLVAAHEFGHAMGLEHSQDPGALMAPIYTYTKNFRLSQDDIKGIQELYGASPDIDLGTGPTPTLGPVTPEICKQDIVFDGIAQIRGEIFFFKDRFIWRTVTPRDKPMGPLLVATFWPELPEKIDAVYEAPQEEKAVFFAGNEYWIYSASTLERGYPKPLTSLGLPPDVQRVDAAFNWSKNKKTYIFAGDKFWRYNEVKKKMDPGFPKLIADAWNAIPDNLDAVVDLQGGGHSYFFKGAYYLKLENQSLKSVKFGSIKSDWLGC
- PROTOCOL TEXT: Inhibition of human recombinant pro-MMP2 by spectrofluorimeter
A complete answer gives the number and then names the unit.

{"MOLECULE SMILES": "CNC(=O)[C@H](Cc1c[nH]c2ccccc12)NC(=O)[C@@H](CC(=O)NNS(=O)(=O)c1ccc([N+](=O)[O-])cc1)CC(C)C", "IC50": "0.31 µM"}
{"MOLECULE SMILES": "CNC(=O)[C@H](Cc1c[nH]c2ccccc12)NC(=O)[C@@H](CC(=O)NNS(=O)(=O)c1ccccc1N)CC(C)C", "IC50": "0.092 µM"}
{"MOLECULE SMILES": "CNC(=O)[C@H](Cc1c(-c2ccccc2)[nH]c2ccccc12)NC(=O)[C@@H](CC(=O)NNS(=O)(=O)c1ccc(-c2ccc(Br)cc2)cc1)CC(C)C", "IC50": "0.247 µM"}
{"MOLECULE SMILES": "CCCCCCCCCCCCCCCCS(=O)(=O)NNC(=O)C[C@@H](CC(C)C)C(=O)N[C@@H](Cc1c[nH]c2ccccc12)C(=O)NC", "IC50": "0.3 µM"}
{"MOLECULE SMILES": "CNC(=O)[C@H](Cc1c[nH]c2ccccc12)NC(=O)[C@@H](CC(=O)NNc1ccc([N+](=O)[O-])cc1[N+](=O)[O-])CC(C)C", "IC50": "10 µM"}

CNC(=O)[C@H](Cc1c[nH]c2ccccc12)NC(=O)[C@@H](CC(=O)NNS(=O)(=O)c1c(C(C)C)cc(C(C)C)cc1C(C)C)CC(C)C has a reported IC50 of 0.1 µM

CNC(=O)[C@H](Cc1c[nH]c2ccccc12)NC(=O)[C@@H](CC(=O)NNS(=O)(=O)c1ccc(Oc2ccccc2)cc1)CC(C)C has a reported IC50 of 0.045 µM

CNC(=O)[C@H](Cc1c(-c2ccccc2)[nH]c2ccccc12)NC(=O)/C(=C/CCc1ccccc1)CC(=O)NNS(=O)(=O)c1ccc(-c2ccc(Br)cc2)cc1 has a reported IC50 of 0.065 µM

CNC(=O)[C@H](Cc1c[nH]c2ccccc12)NC(=O)[C@@H](CC(=O)NNS(=O)(=O)c1ccc(Cl)cc1)CC(C)C has a reported IC50 of 0.018 µM

CNC(=O)[C@H](Cc1c[nH]c2ccccc12)NC(=O)[C@@H](CC(=O)NNS(=O)(=O)c1ccc(N2C(=O)CCC2=O)cc1)CC(C)C has a reported IC50 of 0.079 µM

###

Overview of reported pIC50 across a group of molecules:
- ASSAYED TARGET: Matrix metalloproteinase-14 (Homo sapiens, UniProt P50281)
- PROTOCOL TEXT: Inhibition of human recombinant MMP14 catalytic domain by spectrofluorimeter
Entry type: numeric. Quantity: pIC50, the -log10 of concentration in molar units.

CNC(=O)[C@H](Cc1c[nH]c2ccccc12)NC(=O)[C@@H](CC(=O)NNS(=O)(=O)c1ccccc1N)CC(C)C has a reported pIC50 of 6.14

CNC(=O)[C@H](Cc1c[nH]c2ccccc12)NC(=O)[C@@H](CC(=O)NNS(=O)(=O)c1ccc(N2C(=O)CCC2=O)cc1)CC(C)C has a reported pIC50 of 6.14

CNC(=O)[C@H](Cc1c[nH]c2ccccc12)NC(=O)[C@@H](CC(=O)NNS(=O)(=O)c1ccc(Oc2ccccc2)cc1)CC(C)C has a reported pIC50 of 5.55

CNC(=O)[C@H](Cc1c[nH]c2ccccc12)NC(=O)[C@@H](CC(=O)NNc1ccc(Cl)c(Cl)c1)CC(C)C has a reported pIC50 of 6.00

CNC(=O)[C@H](Cc1c[nH]c2ccccc12)NC(=O)[C@@H](CC(=O)NNS(=O)(=O)c1ccc([N+](=O)[O-])cc1)CC(C)C has a reported pIC50 of 5.82

###

- ASSAYED TARGET: Interstitial collagenase (Homo sapiens, UniProt P03956)
- Sequence (P03956 whole entry): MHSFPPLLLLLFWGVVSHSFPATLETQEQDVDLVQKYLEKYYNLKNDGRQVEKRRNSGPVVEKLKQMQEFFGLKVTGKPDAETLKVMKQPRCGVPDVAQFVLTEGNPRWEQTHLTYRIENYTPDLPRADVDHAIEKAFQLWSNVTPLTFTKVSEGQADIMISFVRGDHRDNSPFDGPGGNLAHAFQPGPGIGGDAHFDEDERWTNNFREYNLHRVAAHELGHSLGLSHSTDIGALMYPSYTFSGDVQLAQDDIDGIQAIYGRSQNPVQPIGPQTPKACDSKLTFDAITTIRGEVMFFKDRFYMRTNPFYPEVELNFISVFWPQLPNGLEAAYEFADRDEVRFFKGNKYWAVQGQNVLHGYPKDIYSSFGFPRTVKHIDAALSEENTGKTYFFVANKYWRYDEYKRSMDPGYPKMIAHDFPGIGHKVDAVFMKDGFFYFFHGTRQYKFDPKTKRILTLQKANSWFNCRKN
- PROTOCOL TEXT: Inhibition of human recombinant pro-MMP1 by spectrofluorimeter
Okay, here is how we bin by IC50: bottom = under 300 nM, middle = from 300 nM up to 1000 nM, top = 1000 nM and over

Example entries and their recorded answers appear below.
{"MOLECULE SMILES": "CNC(=O)[C@H](Cc1c[nH]c2ccccc12)NC(=O)[C@@H](CC(=O)NNc1ccc([N+](=O)[O-])cc1)CC(C)C", "ASSAYED TARGET": "Interstitial collagenase (Homo sapiens, UniProt P03956)", "CLASS ASSIGNMENT": "top"}
{"MOLECULE SMILES": "CNC(=O)[C@H](Cc1c[nH]c2ccccc12)NC(=O)[C@@H](CC(=O)NNS(=O)(=O)c1ccc(N2C(=O)CCC2=O)cc1)CC(C)C", "ASSAYED TARGET": "Interstitial collagenase (Homo sapiens, UniProt P03956)", "CLASS ASSIGNMENT": "bottom"}
{"MOLECULE SMILES": "CNC(=O)[C@H](Cc1c(-c2ccccc2)[nH]c2ccccc12)NC(=O)[C@@H](CC(=O)NNS(=O)(=O)c1ccc(-c2ccc(Br)cc2)cc1)CC(C)C", "ASSAYED TARGET": "Interstitial collagenase (Homo sapiens, UniProt P03956)", "CLASS ASSIGNMENT": "middle"}
{"MOLECULE SMILES": "CNC(=O)[C@H](Cc1c[nH]c2ccccc12)NC(=O)[C@@H](CC(=O)NNc1ccc([N+](=O)[O-])cc1[N+](=O)[O-])CC(C)C", "ASSAYED TARGET": "Interstitial collagenase (Homo sapiens, UniProt P03956)", "CLASS ASSIGNMENT": "top"}
{"MOLECULE SMILES": "CNC(=O)[C@H](Cc1c[nH]c2ccccc12)NC(=O)[C@@H](CC(=O)NNS(=O)(=O)c1ccc(C)cc1)CC(C)C", "ASSAYED TARGET": "Interstitial collagenase (Homo sapiens, UniProt P03956)", "CLASS ASSIGNMENT": "bottom"}

Into which category would you place CNC(=O)[C@H](Cc1c[nH]c2ccccc12)NC(=O)[C@@H](CC(=O)NNS(C)(=O)=O)CC(C)C ?
top

Into which category would you place CCCCCCCCCCCCCCCCS(=O)(=O)NNC(=O)C[C@@H](CC(C)C)C(=O)N[C@@H](Cc1c[nH]c2ccccc12)C(=O)NC ?
middle

Into which category would you place CCCCCC/C=C(\CC(=O)NNS(=O)(=O)c1ccc(-c2ccc(Br)cc2)cc1)C(=O)N[C@@H](Cc1c(-c2ccccc2)[nH]c2ccccc12)C(=O)NC ?
top

Into which category would you place CNC(=O)[C@H](Cc1c[nH]c2ccccc12)NC(=O)[C@@H](CC(=O)NNc1ccc(OC)cc1)CC(C)C ?
middle

Into which category would you place CNC(=O)[C@H](Cc1c[nH]c2ccccc12)NC(=O)[C@@H](CC(=O)NNc1ccc(Cl)c(Cl)c1)CC(C)C ?
top

Into which category would you place CNC(=O)[C@H](Cc1c(-c2ccccc2)[nH]c2ccccc12)NC(=O)/C(=C/CCc1ccccc1)CC(=O)NNS(=O)(=O)c1ccc(-c2ccc(Br)cc2)cc1 ?
top

Into which category would you place CNC(=O)[C@H](Cc1c[nH]c2ccccc12)NC(=O)[C@@H](CC(=O)NNS(=O)(=O)c1ccc2ccccc2c1)CC(C)C ?
bottom

Into which category would you place CNC(=O)[C@H](Cc1c[nH]c2ccccc12)NC(=O)[C@@H](CC(=O)NNS(=O)(=O)c1ccc(Cl)cc1)CC(C)C ?
bottom

Into which category would you place CNC(=O)[C@H](Cc1c[nH]c2ccccc12)NC(=O)[C@@H](CC(=O)NNS(=O)(=O)c1c(C(C)C)cc(C(C)C)cc1C(C)C)CC(C)C ?
top

Into which category would you place CNC(=O)[C@H](Cc1c[nH]c2ccccc12)NC(=O)[C@@H](CC(=O)NNS(=O)(=O)c1ccc([N+](=O)[O-])cc1)CC(C)C ?
middle

Into which category would you place CNC(=O)[C@H](Cc1c[nH]c2ccccc12)NC(=O)[C@@H](CC(=O)NNS(=O)(=O)c1ccccc1N)CC(C)C ?
bottom

Into which category would you place CNC(=O)[C@H](Cc1c[nH]c2ccccc12)NC(=O)[C@@H](CC(=O)NNS(=O)(=O)c1ccccc1[N+](=O)[O-])CC(C)C ?
middle

Into which category would you place CNC(=O)[C@H](Cc1c[nH]c2ccccc12)NC(=O)[C@@H](CC(=O)NNS(=O)(=O)c1ccc(Oc2ccccc2)cc1)CC(C)C ?
bottom

Into which category would you place CNC(=O)[C@H](Cc1c[nH]c2ccccc12)NC(=O)[C@@H](CC(=O)NNS(=O)(=O)c1ccc(-c2ccc(Br)cc2)cc1)CC(C)C ?
bottom
